These measurements were taken from PubChem BioAssay AID504690.

- Tested on: glucose-6-phosphate dehydrogenase-6-phosphogluconolactonase (Plasmodium falciparum 3D7)
- Assay Name: inhibition of malaria parasite G6PD (PfGluPho) – biochemical, fluorescence intensity, uHTS, primary screen (AID 504690)
- Stated Conditions: PfGluPho enzyme, NADPH resazurin-diaphorase fluorescence; at 20 µM; hits give high values
The whole screen tested about 350,000 compounds, of which about 2,700 (0.77%) were called active. The full list was thinned out, with actives kept by preference.
inhibition vs 20%: at or above is satisfied, below is not satisfied.

Could you verify whether the entry O=C(Nc1cccc(Cl)c1)Nc1ccccc1NS(=O)(=O)c1cccs1 shows inhibition of no less than 20%?
not satisfied

Could you verify whether the entry Cc1ccc(S(=O)(=O)N2CCN(C(=O)CSc3cc(C)ccc3C)CC2)c(C)c1 shows inhibition of no less than 20%?
not satisfied

Could you verify whether the entry O=C(COC(=O)Cc1ccc(F)cc1)Nc1cc(S(=O)(=O)N2CCOCC2)ccc1N1CCCC1 shows inhibition of no less than 20%?
not satisfied

Could you verify whether the entry COc1cccc(NC(=O)COC(=O)/C=C/c2ccco2)c1 shows inhibition of no less than 20%?
not satisfied

Could you verify whether the entry CC1CCCC(N2CCN(C(=O)c3ccc(F)cc3)CC2)C1 (stereo unspecified) shows inhibition of no less than 20%?
not satisfied
